The measurements presented in this section are drawn from patent US10517889B2.

Tested on: human SMAD7 mRNA
Assay: Antisense inhibition of human SMAD7 mRNA expression in Hep3B cells by 3-10-3 cEt gapmers, 10,000 nM, electroporation (Example 2)
Assay type: cell-based
Details: SMAD7 mRNA, Hep3B cells, 10,000 nM antisense oligonucleotide, electroporation, approximately 24 hours, primer probe set RTS5062, relative to untreated control cells
Strand notation (5' to 3'): a small letter for the sugar, then the base; units joined by * are phosphorothioate-linked, units joined directly phosphodiester-linked; [ ] holds rarer units or linkages, { } end groups; capitals alone tell only the bases. k = constrained ethyl (cEt); [5mC] = 5-methylcytosine; d = 2'-deoxy (DNA)
Outcome: True for % Inhibition of at least 40%; False for anything lower.

**Q:** Confirm if % Inhibition reported for the substance 800798 (antisense k[5mC]*k[5mC]*kT*dG*dG*dA*dG*dT*d[5mC]*d[5mC]*dG*dG*dG*kT*kT*kG) [compound 800798] is 40% or above.
**A:** False

**Q:** Query 800843 (antisense kT*k[5mC]*kG*dG*d[5mC]*d[5mC]*dA*d[5mC]*dA*d[5mC]*dA*d[5mC]*d[5mC]*kT*k[5mC]*kA) [compound 800843] next
**A:** False

**Q:** One more substance: 800786 (antisense kG*k[5mC]*kA*d[5mC]*d[5mC]*dA*dG*dT*dG*dT*dG*dA*d[5mC]*k[5mC]*kG*kA) [compound 800786]
**A:** False

**Q:** 829727 (antisense kG*k[5mC]*kT*d[5mC]*d[5mC]*dG*dT*dG*dG*d[5mC]*dA*dT*dG*k[5mC]*kG*k[5mC]) [compound 829727] , same question.
**A:** False

**Q:** Similarly, 829761 (antisense kT*k[5mC]*kA*dG*dA*dT*d[5mC]*d[5mC]*dG*d[5mC]*d[5mC]*dT*d[5mC]*kG*kG*k[5mC]) [compound 829761] ?
**A:** False

**Q:** Same for 829779 (antisense kG*kG*kG*dA*dG*d[5mC]*dG*dA*dG*dT*dA*dG*dG*kA*k[5mC]*kG) [compound 829779]
**A:** True

* * *

System: human SMAD7 mRNA
Experiment: Antisense inhibition of human SMAD7 mRNA expression in Hep3B cells by 3-10-3 cEt gapmers, 10,000 nM, electroporation (Example 2)
Type: cell-based
Settings: SMAD7 mRNA, Hep3B cells, electroporation with 10,000 nM antisense oligonucleotide, approximately 24 hours, primer probe set RTS5062, relative to untreated control cells
Strand notation (5' to 3'): a small letter for the sugar, then the base; units joined by * are phosphorothioate-linked, units joined directly phosphodiester-linked; [ ] holds rarer units or linkages, { } end groups; capitals alone tell only the bases. k = constrained ethyl (cEt); [5mC] = 5-methylcytosine; d = 2'-deoxy (DNA)
Give measured % Inhibition for each item. Keep answers brief.
Return type: number; implicit unit %.

**Q:** Which % Inhibition is reported for this substance? 829888 (antisense kG*kT*k[5mC]*d[5mC]*dA*d[5mC]*dG*dG*d[5mC]*dT*dG*d[5mC]*dT*kG*k[5mC]*kA) [compound 829888]
**A:** 47

**Q:** Quick one: 829865 (antisense kG*kG*k[5mC]*dG*dG*dA*d[5mC]*dT*dT*dG*dA*dT*dG*kA*kA*kG) [compound 829865]
**A:** 30

**Q:** Quick one: 829809 (kG*kG*kG*dA*dG*dA*d[5mC]*dT*d[5mC]*dT*dA*dG*dT*kT*k[5mC]*kG; antisense) [compound 829809]
**A:** 51

**Q:** Entry 829927 (kA*kA*kG*dT*d[5mC]*dT*dA*dA*dA*d[5mC]*dA*dT*dG*k[5mC]*kT*k[5mC]; antisense) [compound 829927] please
**A:** 64

**Q:** And the next one, 829895 (antisense kT*k[5mC]*kA*d[5mC]*dA*dA*dA*dG*d[5mC]*dT*dG*dA*dT*k[5mC]*kT*kG) [compound 829895] ?
**A:** 37

**Q:** Now try 829945 (kG*k[5mC]*k[5mC]*dA*dG*dT*dT*dA*dA*dT*d[5mC]*dA*dT*kT*kA*k[5mC]; antisense) [compound 829945] .
**A:** 31

**Q:** Further, for 829965 (k[5mC]*kT*k[5mC]*dA*d[5mC]*d[5mC]*dT*dA*dG*dT*dT*d[5mC]*dG*k[5mC]*kA*kG; antisense) [compound 829965] ?
**A:** 0

**Q:** Here is the next substance: 829901 (antisense kA*kG*k[5mC]*dA*d[5mC]*dG*dG*dG*d[5mC]*dA*dG*d[5mC]*dT*kG*k[5mC]*kT) [compound 829901]
**A:** 10

**Q:** Next record, please: 829972 (k[5mC]*kT*k[5mC]*dG*dG*d[5mC]*d[5mC]*dA*d[5mC]*dA*d[5mC]*dA*d[5mC]*k[5mC]*kT*k[5mC]; antisense) [compound 829972]
**A:** 22

**Q:** Now the substance 829932 (kT*kG*kA*dT*dA*dA*d[5mC]*dA*d[5mC]*d[5mC]*d[5mC]*dA*dT*kA*kG*kA; antisense) [compound 829932]
**A:** 41

**Q:** Another substance to check: 829885 (antisense k[5mC]*k[5mC]*kG*d[5mC]*dT*dG*d[5mC]*dA*dG*dG*d[5mC]*dT*dG*kT*kA*k[5mC]) [compound 829885]
**A:** 31

**Q:** Query 829896 (antisense k[5mC]*kG*kG*dG*dT*dG*dT*dA*dG*d[5mC]*dA*d[5mC]*dT*kG*kG*k[5mC]) [compound 829896] next
**A:** 44

**Q:** Lookup 829958 (kG*k[5mC]*kA*d[5mC]*d[5mC]*dT*dT*dG*dT*d[5mC]*dA*d[5mC]*d[5mC]*k[5mC]*kG*kT; antisense) [compound 829958]
**A:** 51

**Q:** Lookup 829922 (antisense kG*kT*kA*dT*d[5mC]*dA*dT*dA*d[5mC]*dG*dA*dG*dT*kG*kT*kA) [compound 829922]
**A:** 56

**Q:** Same for 829973 (kA*kA*kG*dA*dG*dG*d[5mC]*d[5mC]*dG*d[5mC]*d[5mC]*dT*dG*kG*k[5mC]*kG; antisense) [compound 829973]
**A:** 17

**Q:** Same question for 829921 (antisense kT*k[5mC]*kA*dT*dA*d[5mC]*dG*dA*dG*dT*dG*dT*dA*kT*kG*kA) [compound 829921] please.
**A:** 10

**Q:** Moving on to the next substance: 829978 (kA*kT*kA*dT*dT*dT*dA*dG*d[5mC]*dT*dG*dT*d[5mC]*kA*kG*kA; antisense) [compound 829978]
**A:** 50

**Q:** # iterate: 829875 (antisense k[5mC]*kG*kG*dG*dT*dT*dG*dT*d[5mC]*d[5mC]*dA*dG*dT*kG*kT*kG) [compound 829875]
**A:** 52

**Q:** Further, for 829925 (kA*kT*kG*d[5mC]*dT*d[5mC]*dA*dT*dT*dG*dA*dG*d[5mC]*kT*kA*kA; antisense) [compound 829925] ?
**A:** 37

**Q:** 829898 (antisense kT*kG*kG*d[5mC]*dG*dG*dG*dT*dG*dT*dA*dG*d[5mC]*kA*k[5mC]*kT) [compound 829898] , same question.
**A:** 31

**Q:** Now try 829900 (antisense k[5mC]*kA*k[5mC]*dG*dG*dG*d[5mC]*dA*dG*d[5mC]*dT*dG*d[5mC]*kT*kG*kA) [compound 829900] .
**A:** 0

**Q:** Next: 829838 (k[5mC]*k[5mC]*k[5mC]*dA*dG*dT*dA*dT*dG*d[5mC]*d[5mC]*dA*d[5mC]*k[5mC]*kA*k[5mC]; antisense) [compound 829838]
**A:** 28

**Q:** For 829939 (kA*k[5mC]*kA*dT*dT*d[5mC]*dA*dG*d[5mC]*dT*dA*dG*dG*kT*kG*kA; antisense) [compound 829939] then?
**A:** 34

**Q:** Okay, and 829926 (k[5mC]*kA*kT*dG*d[5mC]*dT*d[5mC]*dA*dT*dT*dG*dA*dG*k[5mC]*kT*kA; antisense) [compound 829926] ?
**A:** 24
